- testTarget: LmTXNPx (Leishmania major, UniProt Q4QF76)
- Sequence (Q4QF76 entry or part of it): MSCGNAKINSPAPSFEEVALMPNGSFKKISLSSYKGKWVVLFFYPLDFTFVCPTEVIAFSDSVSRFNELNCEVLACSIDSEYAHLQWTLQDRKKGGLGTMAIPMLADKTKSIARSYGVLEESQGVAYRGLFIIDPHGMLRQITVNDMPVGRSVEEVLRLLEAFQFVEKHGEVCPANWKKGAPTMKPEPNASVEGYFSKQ
- measurementDescription: HRP-H2O2 competition assay (LmTXNPx inhibition assay)
- Format: biochemical
- conditionNotes: residual activity of HRP; HRP 2 μM, H2O2 0.25 μM, 2.5 μM LmTXNPx, 100 μM inhibitors, sodium phosphate buffer pH 7.4, 25°C
reportedEndpoint: (ΔA/ΔA0) × 100 (%)
Number only, in %; omit the unit.

COc1cc2cc(CN(Cc3ccc(Br)cc3)Cc3nnnn3Cc3ccccc3)c(=O)[nH]c2cc1OC; 37
O=c1[nH]c2ccccc2cc1CN(Cc1ccc(F)cc1)Cc1nnnn1Cc1ccccc1; 45
COc1cc2cc(CN(Cc3ccc(F)cc3)Cc3nnnn3Cc3cccc(I)c3)c(=O)[nH]c2cc1OC; 71

Hi! What's the reported (ΔA/ΔA0) × 100 for COc1cc2cc(CN(Cc3ccc(F)cc3)Cc3nnnn3Cc3cccc(-c4ccccc4)c3)c(=O)[nH]c2cc1OC on LmTXNPx (Leishmania major, UniProt Q4QF76)?
75

Notebook: pull reported (ΔA/ΔA0) × 100 for LmTXNPx (Leishmania major, UniProt Q4QF76), entry COc1cc2cc(CN(Cc3ccc(F)cc3)Cc3nnnn3Cc3cccc([N+](=O)[O-])c3)c(=O)[nH]c2cc1OC
37

// map COc1cc2cc(CN(Cc3ccc(F)cc3)Cc3nnnn3Cc3ccccc3)c(=O)[nH]c2cc1OC to recorded (ΔA/ΔA0) × 100 (system: LmTXNPx (Leishmania major, UniProt Q4QF76))
52

// lookup (ΔA/ΔA0) × 100 | system=LmTXNPx (Leishmania major, UniProt Q4QF76) | key= COc1cc2cc(CN(Cc3ccc(F)cc3)Cc3nnnn3Cc3cccc(N)c3)c(=O)[nH]c2cc1OC
44

Given the entry COc1cc2cc(CN(Cc3nnnn3Cc3ccccc3)CC34CC5CC(CC(C5)C3)C4)c(=O)[nH]c2cc1OC , what (ΔA/ΔA0) × 100 was observed with LmTXNPx (Leishmania major, UniProt Q4QF76)?
93

# query: (ΔA/ΔA0) × 100 | item COc1ccc2[nH]c(=O)c(CN(Cc3ccc(F)cc3)Cc3nnnn3Cc3ccccc3)cc2c1 | system: LmTXNPx (Leishmania major, UniProt Q4QF76)
60

Taken from paper PMC4423475.
